# assay.summary: Cytotoxicity against human HEK293T cells assessed as cell viability at 20 uM after 48 hrs by CCK8 assay relative to control
# Type: cell-based, HEK-293T
# experimental.conditions: read-out: Activity
assay.metric: viability at 48 h, 20 µM

Prompt: Identify the reported viability at 48 h, 20 µM for the following entry. COc1c(OC)c2c3c(nccc3c1-c1cccc(C)c1)C(c1cccc(C)c1)=CN2
Completion: ≤ 90%

###

# pIC50 annotations
# Test system: MCF7
# assay.summary: Cytotoxicity against human MCF7 cells assessed as reduction in cell viability after 48 hrs by CCK8 assay
# Assay type: functional, cell-based
# experimental.conditions: MCF7, 48 h
pIC50: −log10 of the molar value.

Sample records with pIC50:
COc1cc2ccnc3c2c(c1OC)NC=C3c1cccc(F)c1: < 4.70
COc1c(OC)c2c3c(nccc3c1-c1cccc(C(C)C)c1)C=CN2: < 4.70
COc1c(OC)c2c3c(nccc3c1-c1cccc(C(C)C)c1)C(c1cccc(C(C)C)c1)=CN2: < 4.70
COc1cc2ccnc3c2c(c1OC)NC=C3c1cccc(C)c1: < 4.70
COc1cc2ccnc3c2c(c1OC)NC=C3c1ccccc1: 4.92

Prompt: Give a short answer stating reported pIC50 for COc1c(OC)c2c3c(nccc3c1-c1ccc(C(F)(F)F)cc1)C=CN2 .
Completion: 4.96

Prompt: Read the entry COc1c(OC)c2c3c(nccc3c1-c1ccc(C)cc1)C(c1ccc(C)cc1)=CN2 and write its reported pIC50.
Completion: < 4.70

Prompt: Look up and state reported pIC50 for CCc1ccc(C2=CNc3c(OC)c(OC)cc4ccnc2c34)cc1
Completion: < 4.70

Prompt: Annotate the compound COc1cc2ccnc3c2c(c1OC)NC=C3c1cccc(O)c1 with its measured pIC50.
Completion: < 4.70

Prompt: Provide only the value of recorded pIC50 for COc1cc2ccnc3c2c(c1OC)NC=C3c1cccc2ccccc12
Completion: < 4.70

Prompt: Dear colleague, please send me the reported pIC50 for COc1cc2ccnc3c2c(c1OC)NC=C3c1ccc(Cl)cc1 when you can.
Completion: < 4.70
